Molecular target: Adenosine receptor A1 (Homo sapiens, UniProt P30542)
Sequence (P30542 whole entry): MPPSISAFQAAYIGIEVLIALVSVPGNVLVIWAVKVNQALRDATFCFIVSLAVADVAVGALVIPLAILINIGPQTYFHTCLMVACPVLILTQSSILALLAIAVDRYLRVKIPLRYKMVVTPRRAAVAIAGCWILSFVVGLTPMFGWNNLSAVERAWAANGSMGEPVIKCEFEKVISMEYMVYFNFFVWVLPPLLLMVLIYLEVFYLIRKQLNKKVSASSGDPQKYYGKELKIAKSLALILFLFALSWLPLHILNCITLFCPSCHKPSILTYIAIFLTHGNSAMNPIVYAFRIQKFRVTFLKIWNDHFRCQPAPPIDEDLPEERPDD
Assay: Displacement of [3H]DPCPX from human adenosine A1 receptor expressed in CHO cells; range 6.5-8.7
Type: cell-based
quantity-kind: Ki

Sample COc1ccc(NC(=O)Nc2nc3ccc(Cl)cc3c3nc(-c4ccco4)nn23)cc1 — what was its Ki?
7.6 nM
